tested on: Alopecurus myosuroides (ALOMY); assay: Biological Example 2 comparative herbicidal data, post-emergence glasshouse screen; type: in vivo; conditions: 312 h, 62.5 g/ha application rate, read-out: Post-emergence herbicidal activities (percentage phytotoxicity) ALOMY
Give measured pest or weed control at 62.5 g/ha for each item. Keep answers brief.
One number for each entry, in %.

molecule: C#Cc1ccc(C2C(=O)C(C)(C)OC(C)(C)C2=O)c(C)c1 [Compound X-1, reference compound]
measurement-unit: %
pest or weed control at 62.5 g/ha: 10

Please report pest or weed control at 62.5 g/ha for every entry that follows.
1. Cc1cc(C#CCl)cc(C)c1C1C(=O)C2CCC(C2)C1=O (centres unmarked) [Compound A-6]
2. CC#Cc1cc(C)c(C2C(=O)CC(CC3CCOCC3)CC2=O)c(C)c1 (centres unmarked) [Compound A-9]
3. Cc1cc(C#CCl)cc(C)c1C1C(=O)CC(CC2CCOCC2)CC1=O (centres unmarked) [Compound A-8]
4. Cc1cc(C#CCl)ccc1C1C(=O)C(C)(C)OC(C)(C)C1=O [Compound A-7]

*A*
1: 70; 2: 90; 3: 80; 4: 50
